system: pseudotype VSV (expressing GFP) having the surface glycoprotein of Ebola virus (zaire sp.); assay: microbe, parasite or virus in culture; assay type: cell-based; conditions: Vesicular stomatitis virus, Vero C1008, 18 h, Compound Conc. 2.5 μM; read-out: Viral Infection rate (%)
Each record is given true if its reported activity at 2.5 µM is strictly below 2%. Records at or above 2% are given false.

Reference set (8 entries):
[
  {
    "molecule": "CCN(CC)CCCN(c1ccc(OC)cc1[N+](=O)[O-])S(=O)(=O)c1cccc(F)c1 [4-4]",
    "label": "false"
  },
  {
    "molecule": "COc1ccc(N(CC2CCCN(C)C2)S(=O)(=O)c2ccccc2)c(-c2ccccc2)c1 (stereo not shown) [4-42]",
    "label": "true"
  },
  {
    "molecule": "CNCCCN(c1ccc(OC)cc1-c1ccccc1)S(=O)(=O)c1ccccc1 [4-30]",
    "label": "false"
  },
  {
    "molecule": "CCN(CC)CCCN(c1ccc(OC)cc1-c1ccccc1)S(=O)(=O)c1ccccc1 [4-17]",
    "label": "true"
  },
  {
    "molecule": "CCN(CC)CCCN(c1ccc(OC)cc1[N+](=O)[O-])S(=O)(=O)c1ccc(F)cc1 [4-3]",
    "label": "false"
  },
  {
    "molecule": "CCN(CC)CCCN(c1ccc(OC)cc1[N+](=O)[O-])S(=O)(=O)c1ccccc1C [4-7]",
    "label": "false"
  },
  {
    "molecule": "COc1ccc(N(CCN2CCOCC2)S(=O)(=O)c2ccccc2)c(-c2ccccc2)c1 [4-34]",
    "label": "false"
  },
  {
    "molecule": "COc1ccc(N(CCCN(C)C)S(=O)(=O)c2ccccc2)c(-c2ccccc2)c1 [4-27]",
    "label": "true"
  }
]

Next item in the queue.
Exercise: State whether 2% exceeds activity at 2.5 µM recorded for CCN(CC)CCCN(c1ccccc1-c1ccccc1)S(=O)(=O)c1ccccc1 [4-8] .
Key: true

* * *

test system: pseudotype VSV (expressing GFP) having the surface glycoprotein of Ebola virus (zaire sp.); assay: microbe, parasite or virus in culture; assay type: cell-based; conditions: Vesicular stomatitis virus, Vero C1008, 18 h, Compound Conc. 2.5 μM; read-out: Viral Infection rate (%)
With a cut-off of 3%, any activity at 2.5 µM strictly below it is called true; any activity at 2.5 µM meeting it or above is called false.

[
  {
    "compound": "CCN(CC)CCCN(c1ccc(OC)cc1[N+](=O)[O-])S(=O)(=O)c1ccc2ccccc2c1 [4-10]",
    "label": "false"
  }
]

Exercise: Here's an entry: COc1ccc(N(CC2CCN(C)CC2)S(=O)(=O)c2ccccc2)c(-c2ccccc2)c1 [4-20] . Is its activity at 2.5 µM below 3%?
Key: true

Exercise: Regarding CCN(CC)CCCN(c1ccc(OC)cc1[N+](=O)[O-])S(=O)(=O)c1cccc(C)c1 [4-6] , kindly confirm whether its activity at 2.5 µM is beneath 3%.
Key: false

Exercise: Hello, is activity at 2.5 µM of the following compound strictly smaller than 3%? CCN1CCCC(CN(c2ccc(OC)cc2-c2ccccc2)S(=O)(=O)c2ccccc2)C1 (stereo not drawn) [4-25]
Key: true

Exercise: Please determine if CCN(CC)CCCN(c1ccc(OC)cc1[N+](=O)[O-])S(=O)(=O)c1ccccc1 [4-1] is below 3% in terms of activity at 2.5 µM.
Key: true

Exercise: State whether 3% exceeds activity at 2.5 µM recorded for COc1ccc(N(CCN2CCCCC2)S(=O)(=O)c2ccccc2)c(-c2ccccc2)c1 [4-35] .
Key: false

Exercise: Input CCN1CCC(CN(c2ccc(OC)cc2-c2ccccc2)S(=O)(=O)c2ccccc2)CC1 [4-21] ; condition: activity at 2.5 µM strictly below 3%. Does it hold?
Key: true

Exercise: In plain terms, does COc1ccc(N(CCCN)S(=O)(=O)c2ccccc2)c(-c2ccccc2)c1 [4-32] come in under 3% for activity at 2.5 µM?
Key: false

Exercise: Just wondering, is activity at 2.5 µM of COc1ccc(N(CCN(C)C)S(=O)(=O)c2ccccc2)c(-c2ccccc2)c1 [4-33] below 3%?
Key: true

* * *

test system: pseudotype VSV (expressing GFP) having the surface glycoprotein of Ebola virus (zaire sp.); experiment: microbe, parasite or virus in culture; format: cell-based; details: Vesicular stomatitis virus, Vero C1008, 18 h, Compound Conc. 1.25 μM; read-out: Viral Infection rate (%)
measured.metric: activity at 1.25 µM (%)
Record the value in %, omitting the unit from your answer.

[
  {
    "compound": "CCOc1ccc(N(CC2CCN(CC)CC2)S(=O)(=O)c2ccccc2)c(-c2ccccc2)c1 [4-39]",
    "activity at 1.25 µM (%)": 116
  },
  {
    "compound": "COc1ccc(N(CCN2CCOCC2)S(=O)(=O)c2ccccc2)c(-c2ccccc2)c1 [4-34]",
    "activity at 1.25 µM (%)": 76.9
  }
]

Exercise: Can you look up the measured activity at 1.25 µM of CCN(CC)CCCN(c1ccc(OC)cc1-c1ccccc1)S(=O)(=O)c1ccccc1 [4-17] for me?
Key: 0.2

Exercise: Record request: activity at 1.25 µM value, item COc1ccc(N(CC2CCNCC2)S(=O)(=O)c2ccccc2)c(-c2ccccc2)c1 [4-19]
Key: 52.3

Exercise: I would be grateful if you could share the reported activity at 1.25 µM for COc1ccc(N(CC2CCN(C)CC2)S(=O)(=O)c2ccccc2)c(-c2ccccc2)c1 [4-20] .
Key: 0.23

Exercise: Which measured activity at 1.25 µM value corresponds to CCN1CCC(CN(c2ccc(OC)cc2-c2cccc(F)c2)S(=O)(=O)c2ccccc2)CC1 [4-54] ?
Key: 0.1

Exercise: Tell me the measured activity at 1.25 µM of COc1ccc(N(CCN2CCCCC2)S(=O)(=O)c2ccccc2)c(-c2ccccc2)c1 [4-35] , please.
Key: 1.82

* * *

system: pseudotype VSV (expressing GFP) having the surface glycoprotein of Ebola virus (zaire sp.); assay: microbe, parasite or virus in culture; assay type: cell-based; conditions: Vesicular stomatitis virus, Vero C1008, 18 h, Compound Conc. 0.312 μM; read-out: Viral Infection rate (%)
measured.metric: activity at 0.312 µM (%)
Respond with the bare value in %.

For orientation, consider the following solved cases.
[
  {
    "smiles.representation": "CCN1CCC(CN(c2ccc(OC)cc2-c2ccccc2F)S(=O)(=O)c2ccccc2)CC1",
    "activity at 0.312 µM / %": 58.2
  },
  {
    "smiles.representation": "COc1ccc(N(CC2CCN(C)CC2)S(=O)(=O)c2ccccc2)c(-c2ccccc2)c1",
    "activity at 0.312 µM / %": 4.58
  },
  {
    "smiles.representation": "CCN(CC)CCCN(c1ccc(OC)cc1[N+](=O)[O-])S(=O)(=O)c1ccc(OC)cc1",
    "activity at 0.312 µM / %": 88.3
  }
]

Exercise: Dear colleague, I am looking for the recorded activity at 0.312 µM of the following compound: `CCN(CC)CCCN(c1ccccc1-c1ccccc1)S(=O)(=O)c1ccccc1`
Key: 89

Exercise: Quick check: activity at 0.312 µM of `COc1ccc(N(CCCN)S(=O)(=O)c2ccccc2)c(-c2ccccc2)c1` ?
Key: 86

Exercise: Looking for the measured activity at 0.312 µM of `CCN(CC)CCCN(c1ccc(OC)cc1[N+](=O)[O-])S(=O)(=O)c1cccc(C)c1` , can you help?
Key: 91.2
